These data points were gathered from PubChem BioAssay.

# Tested on: XIP peptide (Xip251-270) binding
# protocolDescription: XIP fragment 251-270 binding compounds – biochemical, small-molecule microarray, fluorescence 635/667 nm, 0.1 µg/mL protein, primary screen (AID 1182)
# measurementConditions: fluorescent protein binding, 635 nm, higher = more signal, called active from +8 up or from −8 down
reportedEndpoint: composite z-score
Number only, no unit.

In: What does the data say about its composite z-score? Entry: O=C1NC(=O)C2C1C=CC(C(O)c1ccc(-c3ccccc3)s1)N2Nc1ccc(Cl)cc1Cl (stereo not given)
Out: -0.142

In: What does the data say about its composite z-score? Entry: CN1C(=O)C2C=CC(C(O)C=Cc3ccc([N+](=O)[O-])cc3)N(Nc3ccccc3)C2C1=O (stereo not given)
Out: 0.113

In: What does the data say about its composite z-score? Entry: C=CCNC(=O)[C@H]1[C@@H]2C(=O)O[C@@H](c3ccccc3)[C@@H](c3ccccc3)N2[C@@H](c2ccc(O)cc2)[C@]12C(=O)Nc1ccc(C#CCCO)cc12
Out: -0.0879

In: What does the data say about its composite z-score? Entry: C=C(/C(=C/C[C@H](OC(C)=O)c1ccc(OCCO)cc1)c1cc(C(=O)OC)ccc1OC)C(C)C
Out: 0.537

In: What does the data say about its composite z-score? Entry: CO[C@H]1O[C@H](CO)[C@@H](OC(=O)Nc2ccccc2)[C@@H]2OC(=O)[C@@H](Cc3ccc4ccccc4c3)C/C=C/C[C@H](Cc3ccc4ccccc4c3)C(=O)O[C@@H]12
Out: 1.97

---

# Test system: wheat germ agglutinin (Triticum aestivum), Alexa647-labelled
# protocolDescription: Alexa647-WGA lectin binding to printed small molecules – biochemical, small-molecule microarray, 635/667 nm fluorescence, artefact control for SMM control-protein annotation, profiling panel (AID 1140);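 further: score merges 667 nm feature emission with signal to noise over triplicate slides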
# measurementConditions: WGA-A647 binding, 635 nm fluorescence, higher = more signal
reportedEndpoint: composite z-score
Number only, no unit.

In: What does the data say about its composite z-score? Entry: N#Cc1ccc(C(O)C2C=CC3C(=O)N(c4ccccc4)C(=O)C3N2Nc2ccccc2F)cc1 (configuration not stated)
Out: 0.144

In: What does the data say about its composite z-score? Entry: CC(C)=CCCC(C)=CC(O)C1C=CC2C(=O)N(c3ccccc3)C(=O)C2N1Nc1ccc(C(C)C)cc1 (configuration not stated)
Out: 1.03

In: What does the data say about its composite z-score? Entry: CCOC(=O)C1=C[C@@H](C(C)C)N(S(=O)(=O)c2ccc(C)cc2)[C@H]1c1ccccc1F
Out: 0.927

In: What does the data say about its composite z-score? Entry: C=CC[C@]12N=C(c3ccc(OCCCO)cc3)O[C@H]1c1ccccc1N(CCS(=O)(=O)c1ccccc1)C2=O
Out: 0.97

In: What does the data say about its composite z-score? Entry: C=C(CCCC)/C(=C/C[C@H](OC(=O)c1ccncc1)c1ccc(OCCO)cc1)c1cc(C(=O)OC)ccc1OC
Out: 0.704

In: What does the data say about its composite z-score? Entry: COC(=O)[C@]1(Cc2ccccc2)N=C(c2ccc(OCCCO)cc2)O[C@@H]1c1ccccc1N=[N+]=[N-]
Out: 0.464

In: What does the data say about its composite z-score? Entry: CC(C)[C@@H](C(=O)O)n1cc(C2(O)CCCCC2)nn1
Out: 0.0063

In: What does the data say about its composite z-score? Entry: NC(=O)[C@@H]1[C@H]2C(=O)O[C@H](c3ccccc3)[C@H](c3ccccc3)N2[C@H](c2ccc(OCCO)cc2)[C@@]12C(=O)Nc1ccc(C#CC3=CCCCC3)cc12
Out: 0.632

In: What does the data say about its composite z-score? Entry: COC(=O)C(CC#Cc1ccc2c(c1)[C@]1(C(=O)N2)[C@H](c2ccccc2OCCO)N2[C@H](c3ccccc3)[C@H](c3ccccc3)OC(=O)[C@H]2[C@@H]1C(N)=O)C(=O)OC
Out: 1.15

In: What does the data say about its composite z-score? Entry: COCCOC(=O)N1C(=O)[C@@]2(c3cc(C#CC4=CCCCC4)ccc31)[C@H](c1ccc(OCCO)cc1)N1[C@H](c3ccccc3)[C@H](c3ccccc3)OC(=O)[C@H]1[C@@H]2C(=O)N1CCc2cc(OC)c(OC)cc2C1
Out: -0.0709

In: What does the data say about its composite z-score? Entry: CO[C@H]1O[C@H](CO)[C@@H](OC(=O)Nc2ccccc2-c2ccccc2)[C@H](OC(=O)Nc2ccccc2-c2ccccc2)[C@@H]1OC(=O)Nc1ccccc1-c1ccccc1
Out: 0.827

In: What does the data say about its composite z-score? Entry: COc1ccc(C#Cc2ccc3c(c2)[C@]2(C(=O)N3)[C@H](c3ccc(O)cc3)N3[C@H](c4ccccc4)[C@H](c4ccccc4)OC(=O)[C@H]3[C@@H]2C(=O)N2CCc3cc(OC)c(OC)cc3C2)cc1
Out: 0.384

In: What does the data say about its composite z-score? Entry: O=C1OCC=C[C@H]2OC34C=CCN(CCN5CCOCC5)C(=O)[C@H]3N(CCO)C(=O)[C@@H]4[C@@H]12 (some centres not stated)
Out: 0.0315

In: What does the data say about its composite z-score? Entry: COc1ccc(CCNC(=O)[C@@]2(C)c3ccccc3C(=O)N(c3ccc(C)cn3)[C@H]2c2ccc(CO)cc2)cc1
Out: -0.902

In: What does the data say about its composite z-score? Entry: C=CCN1C(=O)[C@]2(O[C@H](CCO)[C@@H]([Si](C)(C)c3ccc(OC)cc3)[C@@H]2C)c2cc(N(C=O)c3ccccc3)ccc21
Out: 0.792

In: What does the data say about its composite z-score? Entry: COC(=O)[C@H](Cc1ccccc1)N[C@H](/C=C/C1CC1)[C@@H](O)Cc1ccccc1
Out: 0.0999

In: What does the data say about its composite z-score? Entry: CC(C)NC(=O)[C@@]1(Cc2ccccc2I)c2ccccc2C(=O)N(Cc2ccccc2Cl)[C@H]1c1ccc(CO)cc1
Out: 0.858

In: What does the data say about its composite z-score? Entry: O[C@@H](Cc1ccccc1)[C@@H](/C=C/C1CC1)NCc1cccc(Cl)c1
Out: 0.204

In: What does the data say about its composite z-score? Entry: O=C(NCCN1CCOCC1)[C@@H]1c2ccccc2C(=O)N(Cc2cc(C(F)(F)F)cc(C(F)(F)F)c2)[C@H]1c1ccc(CO)cc1
Out: 0.4

In: What does the data say about its composite z-score? Entry: COCCOC(=O)N1C(=O)[C@@]2(c3cc(C#CC4(O)CCCCCC4)ccc31)[C@H](c1ccccc1OCCO)N1[C@H](c3ccccc3)[C@H](c3ccccc3)OC(=O)[C@H]1[C@@H]2C(=O)N1CCc2cc(OC)c(OC)cc2C1
Out: 0.632

In: What does the data say about its composite z-score? Entry: CCCC[C@@H]1C[C@H]1[C@@H](NC(=O)c1cccnc1)c1ccc(Cl)cc1
Out: -1.72

In: What does the data say about its composite z-score? Entry: COc1ccc([Si](C)(C)[C@H]2[C@H](CCn3cc([C@H](O)c4ccccc4)nn3)O[C@@]3(C(=O)N(C)c4ccccc43)[C@@H]2C)cc1
Out: -0.0898

---

# protocolDescription: basal CRE-LacZ reporter activity in PC12 – cell-based, unstimulated, primary screen (AID 1145)
# measurementConditions: no forskolin, luminescence, 4.5 h, called active from +8 up or from −8 down
Activity calls are given as the source filed them.
Would you mind answering with one of these outcomes? active, inactive

In: Hi, sorry to bother you, what did the test record for O=C1C2C=CC(C(O)C=Cc3ccc([N+](=O)[O-])cc3)N(Nc3ccccc3F)C2C(=O)N1c1ccccc1 (centres undefined) ?
Out: inactive

In: Hi, sorry to bother you, what did the test record for CO[C@H]1O[C@H](CO)[C@@H](OC(=O)Nc2cccc(F)c2)[C@H](OC(=O)Nc2ccccc2)[C@H]1OC(=O)Nc1ccccc1 ?
Out: inactive

In: Hi, sorry to bother you, what did the test record for COC(=O)C[C@H]1O[C@@H](CCc2ccccc2)[C@@H](C)[C@@H]1[Si](C)(C)c1ccc(OC)cc1 ?
Out: inactive

In: Hi, sorry to bother you, what did the test record for CN(C)C(=O)[C@]1(Cc2ccccc2)N=C(c2ccc(OCCCO)cc2)O[C@@H]1c1ccccc1N=[N+]=[N-] ?
Out: inactive

In: Hi, sorry to bother you, what did the test record for O=C(NCCN1CCOCC1)[C@@H]1c2ccccc2C(=O)N(Cc2cc(C(F)(F)F)cc(C(F)(F)F)c2)[C@H]1c1ccc(CO)cc1 ?
Out: inactive

In: Hi, sorry to bother you, what did the test record for CC(C)(C)OC(=O)CC[C@@]1(C(=O)N2CCCCC2)N=C(c2ccc(OCCCO)cc2)O[C@@H]1c1ccccc1 ?
Out: inactive

In: Hi, sorry to bother you, what did the test record for COc1ccc([C@H]2C[C@H]3C(Br)=C[C@@]2(CO)C(=O)[C@]32CO2)cc1 ?
Out: inactive

In: Hi, sorry to bother you, what did the test record for CCCCCN1CC=CC23O[C@@H]4C=CCOC(=O)[C@@H]4[C@H]2C(=O)N(C(C)CO)[C@@H]3C1=O (some centres undefined) ?
Out: inactive

In: Hi, sorry to bother you, what did the test record for O=C(O)[C@@]1(CCS(=O)(=O)c2ccccc2)N=C(c2ccc(OCCCO)cc2)O[C@H]1c1ccccc1 ?
Out: inactive

In: Hi, sorry to bother you, what did the test record for C#CCNCc1ccccc1 ?
Out: inactive

In: Hi, sorry to bother you, what did the test record for CS(=O)(=O)CCOC(=O)C1=CC(CCCO)=CC(C2CC2)N(Cc2cc3c(cc2Br)OCO3)C=C1C(=O)OCCS(C)(=O)=O (centres undefined) ?
Out: inactive

In: Hi, sorry to bother you, what did the test record for COC(=O)[C@]1(Cc2ccccc2)N=C(c2ccc(OCCCO)cc2)O[C@@H]1c1ccccc1N=[N+]=[N-] ?
Out: inactive

In: Hi, sorry to bother you, what did the test record for C=CCNC(=O)[C@@H]1[C@H]2C(=O)O[C@H](c3ccccc3)[C@H](c3ccccc3)N2[C@H](c2ccc(OCCO)cc2)[C@@]12C(=O)N(C(=O)OCCOC)c1ccc(C#CCC(C(=O)OC)C(=O)OC)cc12 ?
Out: inactive

In: Hi, sorry to bother you, what did the test record for C=C(CCCC)/C(=C/C[C@@H](OC(C)=O)c1ccccc1OCCO)c1cc(C(=O)OC)ccc1OC ?
Out: active
